studySystem: 5-hydroxytryptamine receptor 1A (Mus musculus)
Sequence (Q64264 whole entry): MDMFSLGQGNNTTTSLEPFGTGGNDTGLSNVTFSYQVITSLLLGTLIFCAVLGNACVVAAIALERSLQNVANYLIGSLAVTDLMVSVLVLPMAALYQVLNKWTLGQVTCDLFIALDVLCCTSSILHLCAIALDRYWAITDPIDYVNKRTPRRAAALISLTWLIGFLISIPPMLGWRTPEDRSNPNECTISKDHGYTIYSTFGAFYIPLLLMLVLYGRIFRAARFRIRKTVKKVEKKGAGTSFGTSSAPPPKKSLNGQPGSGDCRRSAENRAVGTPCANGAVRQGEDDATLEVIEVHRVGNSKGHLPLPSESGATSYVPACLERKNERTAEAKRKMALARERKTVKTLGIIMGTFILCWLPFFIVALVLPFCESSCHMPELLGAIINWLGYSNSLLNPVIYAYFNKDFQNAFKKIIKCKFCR
assayProtocol: Agonist activity at mouse 5-HT1A expressed in HEK293 cells after 2 to 5 mins
pEC50: −log10 of the molar value.

{"querySmiles": "N#Cc1ccc2[nH]cc(CCCCN3CCN(c4c5c(nc6ccccc46)CCCC5)CC3)c2c1", "pEC50": 6.97}

----------
studySystem: UniProt:P27338
Sequence (P27338 whole entry): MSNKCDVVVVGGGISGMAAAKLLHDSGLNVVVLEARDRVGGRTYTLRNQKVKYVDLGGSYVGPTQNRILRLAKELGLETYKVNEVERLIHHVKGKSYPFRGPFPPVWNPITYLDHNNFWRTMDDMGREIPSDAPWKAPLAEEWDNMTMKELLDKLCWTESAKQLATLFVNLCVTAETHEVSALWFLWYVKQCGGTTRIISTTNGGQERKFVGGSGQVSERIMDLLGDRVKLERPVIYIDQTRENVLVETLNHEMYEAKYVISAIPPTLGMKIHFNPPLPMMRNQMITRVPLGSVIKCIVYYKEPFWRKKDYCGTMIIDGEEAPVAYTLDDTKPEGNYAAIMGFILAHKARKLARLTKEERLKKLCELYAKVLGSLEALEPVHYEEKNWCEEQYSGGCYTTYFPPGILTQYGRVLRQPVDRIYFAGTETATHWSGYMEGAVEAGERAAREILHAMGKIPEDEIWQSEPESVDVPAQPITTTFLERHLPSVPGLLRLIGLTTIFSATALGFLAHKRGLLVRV
pIC50: −log10 of the molar value.

{"querySmiles": "O=C(c1ccc(OCCCc2cnc[nH]2)cc1)C1CC1", "studySystem": "UniProt:P27338", "pIC50": 5.72}

----------
studySystem: Prostaglandin G/H synthase 2 (Ovis aries, UniProt P79208)
Sequence (P79208 whole entry): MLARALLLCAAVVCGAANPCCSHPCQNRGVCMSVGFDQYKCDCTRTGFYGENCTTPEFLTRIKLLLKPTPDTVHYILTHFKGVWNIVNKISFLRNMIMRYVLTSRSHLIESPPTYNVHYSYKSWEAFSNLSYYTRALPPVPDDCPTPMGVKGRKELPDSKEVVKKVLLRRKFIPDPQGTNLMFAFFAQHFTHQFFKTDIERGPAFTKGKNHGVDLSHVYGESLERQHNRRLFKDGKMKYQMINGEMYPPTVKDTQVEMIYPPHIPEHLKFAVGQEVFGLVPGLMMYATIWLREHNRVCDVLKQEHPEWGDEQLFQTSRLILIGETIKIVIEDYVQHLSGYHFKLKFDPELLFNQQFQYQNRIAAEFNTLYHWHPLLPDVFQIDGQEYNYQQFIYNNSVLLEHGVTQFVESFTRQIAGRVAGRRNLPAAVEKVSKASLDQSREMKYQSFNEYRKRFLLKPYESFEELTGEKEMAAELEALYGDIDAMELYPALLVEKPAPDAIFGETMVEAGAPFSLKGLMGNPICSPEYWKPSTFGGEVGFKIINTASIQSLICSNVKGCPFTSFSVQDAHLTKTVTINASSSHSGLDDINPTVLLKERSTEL
pIC50: −log10 of the molar value.
property: pIC50

{"querySmiles": "CC[C@@H](/C=C/[C@@H](C)[C@H]1CC[C@H]2C3=CC[C@H]4C[C@@H](O)CC[C@]4(C)[C@H]3CC[C@]12C)C(C)C", "property": "pIC50", "recordedValue": 5.11}

----------
studySystem: Sodium-dependent serotonin transporter (Homo sapiens, UniProt P31645)
Sequence (P31645 whole entry): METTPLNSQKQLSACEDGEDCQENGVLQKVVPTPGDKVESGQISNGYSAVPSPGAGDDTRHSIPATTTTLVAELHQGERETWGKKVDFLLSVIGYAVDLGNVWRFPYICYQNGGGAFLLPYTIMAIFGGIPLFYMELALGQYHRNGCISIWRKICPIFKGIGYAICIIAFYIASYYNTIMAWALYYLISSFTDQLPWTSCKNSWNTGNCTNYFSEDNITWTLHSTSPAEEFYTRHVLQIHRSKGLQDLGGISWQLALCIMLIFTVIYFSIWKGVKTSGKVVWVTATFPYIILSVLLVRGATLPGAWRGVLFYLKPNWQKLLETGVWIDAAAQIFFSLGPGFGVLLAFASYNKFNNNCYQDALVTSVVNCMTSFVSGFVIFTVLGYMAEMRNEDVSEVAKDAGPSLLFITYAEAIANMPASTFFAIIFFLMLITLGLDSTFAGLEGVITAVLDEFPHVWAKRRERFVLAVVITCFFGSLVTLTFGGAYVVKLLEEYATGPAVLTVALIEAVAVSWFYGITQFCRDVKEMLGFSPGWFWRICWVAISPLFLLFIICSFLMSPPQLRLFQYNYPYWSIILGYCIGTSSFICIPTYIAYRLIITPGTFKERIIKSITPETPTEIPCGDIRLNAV

{"querySmiles": "N#Cc1ccc2[nH]cc(CCCCN3CCN(c4c5c(nc6ccccc46)CCCC5)CC3)c2c1", "unitsOfMeasure": "µM", "IC50": 0.0158}

----------
studySystem: Neuronal acetylcholine receptor subunit alpha-7 (Homo sapiens, UniProt P36544)
Sequence (P36544 whole entry): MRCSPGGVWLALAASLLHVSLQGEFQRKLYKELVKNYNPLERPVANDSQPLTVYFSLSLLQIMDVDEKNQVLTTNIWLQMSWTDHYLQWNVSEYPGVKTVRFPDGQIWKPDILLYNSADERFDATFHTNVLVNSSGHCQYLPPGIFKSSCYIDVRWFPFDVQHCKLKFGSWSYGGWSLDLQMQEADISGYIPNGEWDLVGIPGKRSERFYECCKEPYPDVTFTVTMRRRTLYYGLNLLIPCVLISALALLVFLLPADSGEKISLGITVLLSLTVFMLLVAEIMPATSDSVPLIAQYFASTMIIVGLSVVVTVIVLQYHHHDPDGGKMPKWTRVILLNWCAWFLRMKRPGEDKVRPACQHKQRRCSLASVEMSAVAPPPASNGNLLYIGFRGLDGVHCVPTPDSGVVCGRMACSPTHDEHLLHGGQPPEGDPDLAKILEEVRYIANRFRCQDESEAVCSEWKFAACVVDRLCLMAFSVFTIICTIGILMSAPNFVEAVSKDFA
assayProtocol: Inhibition of alpha7 nAChR (unknown origin)

{"querySmiles": "COc1ccccc1CN1CCN(CCCCCOc2cccc3[nH]c4ccccc4c23)CC1", "Ki, µM": 66.8}

----------
studySystem: Prostaglandin G/H synthase 1 (Homo sapiens, UniProt P23219)
Sequence (P23219 whole entry): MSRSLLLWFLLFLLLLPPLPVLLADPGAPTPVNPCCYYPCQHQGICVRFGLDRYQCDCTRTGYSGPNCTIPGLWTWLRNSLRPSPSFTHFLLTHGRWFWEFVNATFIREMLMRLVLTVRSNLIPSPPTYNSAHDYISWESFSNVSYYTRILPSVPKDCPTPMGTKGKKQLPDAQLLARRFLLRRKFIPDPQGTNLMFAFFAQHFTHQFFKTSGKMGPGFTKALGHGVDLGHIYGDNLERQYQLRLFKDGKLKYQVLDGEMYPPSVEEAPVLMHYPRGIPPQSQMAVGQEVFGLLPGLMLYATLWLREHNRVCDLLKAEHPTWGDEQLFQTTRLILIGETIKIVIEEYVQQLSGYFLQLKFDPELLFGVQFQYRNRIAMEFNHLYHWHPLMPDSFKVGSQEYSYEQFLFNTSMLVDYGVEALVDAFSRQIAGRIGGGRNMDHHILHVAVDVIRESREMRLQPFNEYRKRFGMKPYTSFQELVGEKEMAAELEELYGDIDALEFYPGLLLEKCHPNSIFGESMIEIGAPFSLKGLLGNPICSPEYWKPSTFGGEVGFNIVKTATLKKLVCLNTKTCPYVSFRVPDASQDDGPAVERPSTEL
assayProtocol: Inhibition of COX1 in human platelets after 30 mins by mass spectrometry analysis
Entries annotated with measured IC50
property: IC50 (µM)

{"querySmiles": "Cc1ccc(Nc2c(F)cccc2Cl)c(CNc2nnn[nH]2)c1", "studySystem": "Prostaglandin G/H synthase 1 (Homo sapiens, UniProt P23219)", "property": "IC50", "unitsOfMeasure": "µM", "recordedValue": 13.2}
{"querySmiles": "Cc1ccc(Nc2c(F)cccc2Cl)c(CNS(=O)(=O)C(F)(F)F)c1", "studySystem": "Prostaglandin G/H synthase 1 (Homo sapiens, UniProt P23219)", "property": "IC50", "unitsOfMeasure": "µM", "recordedValue": 16.1}
